system: Klebsiella pneumonia; test: MIC against Gram-negative bacteria: Klebsiella pneumonia; assay type: cell-based; settings: 10 h cultivation at 37° C., 5×10^5 CFU/mL, two-fold serial dilution
Measured Quantity: MIC K. pneumonia

* PRT1138 (EINECDSDPCMNGGLCHESTIPGQFVCLCPPLYTGQFCH; listed as Homo sapiens) | 12.5 µg/mL
* PRT1069 (VTNPCDRKKCEWLCLLSPSGPVCTCPNGKRLDNGTCV; listed as Homo sapiens) | 25 µg/mL
* PRT1093 (RKDWCESQPCQSRGRCINLWLSYQCDCHRPYEGPNCL; listed as Homo sapiens) | 50 µg/mL
* PRT1130 (DDCSSHCDLAHGCCAPDGSCRCDPGWEGLHCE; listed as Homo sapiens) | 12.5 µg/mL
* PRT1163 (SVNSCAVNPCLHNGECVADNTSRGYHCRCPPSWQGDDCS; listed as Homo sapiens) | 25 µg/mL
* PRT1136 (KQQFCQESLSSEFCSGHGKCLSEAWSKTYSCHCQPPFSGKYCQ; listed as Homo sapiens) | 12.5 µg/mL
* PRT1174 (DLNYCGTHQPCLNGGTCSNTGPDKYQCSCPEGYSGPNCE; listed as Homo sapiens) | 50 µg/mL
* PRT1079 (DQCSLNNGGCSHNCSVAPGEGIVCSCPLGMELGPDNHTCQ; listed as Homo sapiens) | 12.5 µg/mL
* PRT1061 (KRDPCLRKYKDFCIHGECKYVKELRAPSCICHPGYHGERCH; listed as Homo sapiens) | 12.5 µg/mL
* PRT1123 (QLTGCQGHTCPLAATCIPIFESGVHSYVCHCPPGTHGPFCG; listed as Homo sapiens) | 12.5 µg/mL
* PRT1151 (QFASCENNPCGNGATCVPKSGTDIVCLCPYGRSGPLCT; listed as Homo sapiens) | 50 µg/mL
* PRT1191 (AEHACTSNPCANGGSCHEVPSGFECHCPSGWSGPTCA; listed as Homo sapiens) | 25 µg/mL
* PRT1086 (HFKPCRDKDLAYCLNDGECFVIETLTGSHKHCRCKEGYQGVRCD; listed as Homo sapiens) | 25 µg/mL
* PRT1158 (IQTSCESFPLRNNATCKKCEKDYPCSCISGFTEKNCE; listed as Homo sapiens) | 50 µg/mL
* PRT1090 (NNTRCLSNSCQNNSTCKDFSKDNDCSCSDTANNLDKDCD; listed as Homo sapiens) | 12.5 µg/mL
* PRT1166 (DTPEGVRYISSNVCGPHGKCKSQSGGKFTCDCNKGFTGTYCH; listed as Homo sapiens) | 50 µg/mL
* PRT1113 (HVDPCHSAPCARGRCHTHPDGRFECRCPPGFGGPRCR; listed as Homo sapiens) | 12.5 µg/mL
* PRT1051 (EQKLCKLRKGNCSSTVCGQDLQSHLCMCAEGYALSRDRKYCE; listed as Homo sapiens) | 12.5 µg/mL
* PRT1055 (GADPCLYQNGGCEHICKKRLGTAWCSCREGFMKASDGKTCL; listed as Homo sapiens) | 50 µg/mL
* PRT1076 (SCLTCVGHCSNGGSCTMNSKMMPECQCPPHMTGPRCE; listed as Homo sapiens) | 25 µg/mL
* PRT1154 (DGTACGYNTCRNGGECTVNGTTFSCRCLPDWAGNTCN; listed as Homo sapiens) | 12.5 µg/mL
* PRT1088 (PVNPCCYYPCQHQGICVRFGLDRYQCDCTRTGYSGPNCT; listed as Homo sapiens) | 12.5 µg/mL
* PRT1185 (REFQCDAYTCSNGGTCYDSGDTFRCACPPGWKGSTCA; listed as Homo sapiens) | 50 µg/mL
* PRT1095 (EVQWCGFSPCPHGAQCQPVLQGFECIANAVFNGQSGQ; listed as Homo sapiens) | 25 µg/mL
* PRT1063 (ELSPCRINNGGCQDLCLLTHQGHVNCSCRGGRILQDDLTCR; listed as Homo sapiens) | 25 µg/mL
* PRT1108 (DLNECNSNPCQSNGECVELSSEKQYGRITGLPSSFSYHEASGYVCICQPGFTGIHCE; listed as Homo sapiens) | 12.5 µg/mL
* PRT1184 (NPNDCLPDPCHSRGRCYDLVNDFYCACDDGWKGKTCH; listed as Homo sapiens) | 25 µg/mL
* PRT1057 (DIDECEMGVPVCPPASSKCINTEGGYVCRCSEGYQGDGIHCL; listed as Homo sapiens) | 12.5 µg/mL
* PRT1169 (RDSQCDEATCNNGGTCYDEGDAFKCMCPGGWEGTTCN; listed as Homo sapiens) | 25 µg/mL
* PRT1150 (HVPWCAHHLCRNNGTCISDNENLFCECPRLYSGK; listed as Homo sapiens) | 50 µg/mL
* PRT1170 (RNSSCLPNPCHNGGTCVVNGESFTCVCKEGWEGPICA; listed as Homo sapiens) | 12.5 µg/mL
* PRT1087 (HEEPCGPSHKSFCLNGGLCYVIPTIPSPFCRCVENYTGARCE; listed as Homo sapiens) | 50 µg/mL

----------
system: Pseudomonas aeruginosa; assay: MIC against Gram-negative bacteria: Pseudomonas aeruginosa; assay type: cell-based; conditions: 96-well plate, 5×10^5 CFU/mL, 37° C., 10 h
Measured Quantity: MIC P. aeruginosa (mg/L)

* PRT725 (VPNLCKQICSHLCLLRPGGYSCACPQGSSFIEGSTTECD; listed as Homo sapiens) | 25
* PRT720 (INECHDPSISGCDHNCTDTLTSFYCSCRPGYKLMSDKRTCV; listed as Homo sapiens) | 12.5
* PRT674 (DVDECQDPAACRPGRCVNLPGSYRCECRPPWVPGPSGRDCQ; listed as Homo sapiens) | 50
* PRT717 (DLNECLVFGTCSHQCINVEGSYKCVCDQNFQERNNTCI; listed as Homo sapiens) | 50
* PRT662 (RIYFCQIPCLNGGRCIGRDECWCPANSTGKFCH; listed as Homo sapiens) | 25
* PRT603 (CHCHPQGSKDTVCDQVTGQCPCHGEVSGRRCDRCLAGYFGFPSCHP; listed as Homo sapiens) | 25
* PRT607 (CDCHPEGSLSLQCKDDGRCECREGFVGNRCDQCEENYFYNRSWPGCQE; listed as Homo sapiens) | 12.5
* PRT661 (QAEECGILNGCENGRCVRVREGYTCDCFEGFQLDAAHMACV; listed as Homo sapiens) | 12.5
* PRT714 (HINECLSKKVSGCSQDCQDLPVSYKCKCWPGFQLKDDGKTCV; listed as Homo sapiens) | 12.5
* PRT673 (DVDECLDESNCRNGVCENTRGGYRCACTPPAEYSPAQRQCL; listed as Homo sapiens) | 50
* PRT706 (EVNHCSNYCQNGGTCVPSVLGRPTCSCALGFTGPNCG; listed as Homo sapiens) | 12.5
* PRT740 (GLNDCMHNNGQCGQLCLAIPGGHRCGCASHYTLDPSSRNCS; listed as Homo sapiens) | 50
* PRT594 (CACNNNIDVTDPESCSRVTGECLRCLHNTQGANCQLCKPGHYGSALNQTCRR; listed as Homo sapiens) | 50
* PRT622 (CNCNPMGSEPVGCRSDGTCVCKPGFGGPNC; listed as Homo sapiens) | 25
* PRT668 (DINECRHPGTCPDGRCVNSPGSYTCLACEEGYRGQSGSCV; listed as Homo sapiens) | 12.5
* PRT658 (DVNECELMLAVCGAALCENVEGSFLCLCASDLEEYDAQEGHCR; listed as Homo sapiens) | 50
* PRT655 (DVDECATTDPCVGGHCVNTEGSFNCLCETGFQPSPESGECV; listed as Homo sapiens) | 12.5
* PRT632 (CKCHPLGSQEDQCHPKTGQCTCRPGVTGQACDRCQLGFFGFSIKGCRA; listed as Homo sapiens) | 12.5
* PRT635 (DINECLEDKSVCQRGDCINTAGSYDCTCPDGFQLDDNKTCQ; listed as Homo sapiens) | 12.5
* PRT712 (GSNSCQLNNGGCSQLCLPTSETTRTCMCTVGYYLQKNRMSCQ; listed as Homo sapiens) | 50
* PRT627 (CTCNPAGSLDTCDPRSGRCPCKENVEGNLCDRCRPGTFNLQPHNPAGCSS; listed as Homo sapiens) | 12.5
* PRT628 (CTCNQHGTCDPNTGICVCSHHTEGPSCERCLPGFYGNPFAGQADDCQP; listed as Homo sapiens) | 25
* PRT716 (TEYTCEDNVNPCGDDAYCNQIKTSVFCRCKPGFQRNMKNRQCE; listed as Homo sapiens) | 25
* PRT652 (DLDECAFPGVCPSGVCTNTAGSFSCKDCDGGYRPSPLGDSCE; listed as Homo sapiens) | 50
* PRT610 (CSCDPSGSIDECNIETGRCVCKDNVEGFNCERCKPGFFNLESSNPRGCTP; listed as Homo sapiens) | 12.5
* PRT637 (DIDECVNNTVCDSHGFCDNTAGSFRCLCYQGFQAPQDG; listed as Homo sapiens) | 25
* PRT600 (CDCNPLGSLPFLTCDVDTGQCLCLSYVTGAHCEECTVGYWGLGNHLHGCSP; listed as Homo sapiens) | 25
* PRT640 (DMDECQDPSSCIDGQCVNTEGSYNCFCTHPMVLDASE; listed as Homo sapiens) | 50
* PRT614 (CNCNLYGTMKQQSSCNPVTGQCECLPHVTGQDCGACDPGFYNLQSGQGCER; listed as Homo sapiens) | 50
* PRT734 (NNNPCLENNGGCSHLCFALPGLHTPKCDCAFGTLQSDGKNCA; listed as Homo sapiens) | 25
* PRT705 (LDDSCKLTCENGGRCILNEKGDLRCHCWPSYSGE; listed as Homo sapiens) | 12.5
